test system: SW-620; experiment: NCI tumour cell line growth inhibition, 48 h
Activity calls are given as the source filed them. Rule as the data show it: active = GI50 up to about 1.1 µM and inactive = higher.
# GI50 annotations

[
  {
    "compound": "O=C1NC(=S)N/C1=C\\c1ccc(Sc2ccccc2C(=O)O)s1",
    "GI50": "> 100 µM (inactive)"
  },
  {
    "compound": "Cn1c2c(cc(-c3ccccc3)c1=O)COc1ccccc1-2",
    "GI50": "45.9 µM (inactive)"
  },
  {
    "compound": "CCOC(=O)/C(=C\\c1c(C)[nH]c2ccccc12)P(=O)(OCC)OCC",
    "GI50": "> 100 µM (inactive)"
  },
  {
    "compound": "COc1ccc([N+](=O)[O-])c2c(NCCCN(C)C)c3ccccc3nc12",
    "GI50": "0.0929 µM (active)"
  },
  {
    "compound": "COc1ccc(-c2oc3cc(O)cc(O)c3c(=O)c2OC)cc1 [ERMANIN]",
    "GI50": "31.2 µM (inactive)"
  },
  {
    "compound": "COC(=O)n1c(=O)nc2c3c(ncn21)Oc1c(c(-c2ccccc2)nn1-c1ccccc1)C3c1ccc(Cl)cc1 (centres undefined)",
    "GI50": "1.69 µM (inactive)"
  },
  {
    "compound": "C/C(=N\\Nc1ccc([N+](=O)[O-])cc1[N+](=O)[O-])c1sc(-n2nc(-c3ccccc3)cc2-c2ccccc2)nc1C",
    "GI50": "26.3 µM (inactive)"
  },
  {
    "compound": "Nc1ccc(Oc2ccc(C34CC5CC(C3)CC(c3ccc(Oc6ccc(N)cc6C(F)(F)F)cc3)(C5)C4)cc2)c(C(F)(F)F)c1",
    "GI50": "36.3 µM (inactive)"
  },
  {
    "compound": "CC1=C(C#N)C23C(=O)c4ccccc4C(=O)C2=C(O)C=CC3(O)N1 (centres undefined)",
    "GI50": "0.553 µM (active)"
  }
]

---

system: K562; test: NCI tumour cell line growth inhibition, 48 h
The source made the active and inactive calls. Rule as the data show it: active = GI50 up to about 1.1 µM and inactive = higher.

[
  {
    "compound": "O=[N+]([O-])c1cccc(C2=NN(c3ccccc3)C3c4cc(Br)ccc4OCC23)c1 (stereo not given)",
    "GI50": "> 100 µM (inactive)"
  },
  {
    "compound": "COC(=O)C1=C(O)c2cc(OC)c(OC)c(OC)c2C(c2ccc3c(c2)OCO3)[C@@H]1C(=O)OC (stereo not given in full)",
    "GI50": "3.9 µM (inactive)"
  },
  {
    "compound": "CCOC(=O)C1(C#N)CC1",
    "GI50": "> 100 µM (inactive)"
  },
  {
    "compound": "O=C(O)CS",
    "GI50": "> 100 µM (inactive)"
  },
  {
    "compound": "O=C(O)C(=O)/C=C\\c1ccc(Cl)cc1",
    "GI50": "> 100 µM (inactive)"
  },
  {
    "compound": "CC(=O)Nc1ccccc1C=C1c2ccccc2-c2ccccc21",
    "GI50": "51.9 µM (inactive)"
  },
  {
    "compound": "O=C1CCc2cc3c(cc21)CC1(Cc2ccccc2C1)C3",
    "GI50": "2.09 µM (inactive)"
  },
  {
    "compound": "Cc1[nH]c2ccccc2c1C1Cc2ccccc2N1C(=O)/C=C/C(=O)O (stereo not given)",
    "GI50": "> 100 µM (inactive)"
  },
  {
    "compound": "C[C@H](CCC(=O)O)[C@H]1CC[C@H]2[C@@H]3C(=O)C[C@@H]4C[C@H](O)CC[C@]4(C)[C@H]3C[C@H](O)[C@]12C",
    "GI50": "> 100 µM (inactive)"
  },
  {
    "compound": "Cc1ccc(C(=O)c2nnc(C(=O)c3ccc(C)cc3)nn2)cc1",
    "GI50": "23.3 µM (inactive)"
  }
]

---

Listed next: entries and their corresponding GI50.
test system: SF-268; experiment: NCI tumour cell line growth inhibition, 48 h
Calls of active or inactive are those of the source. Cut-off read from the data, not from the text of the source: active = GI50 up to about 1.1 µM and inactive = higher.
measurement.label: GI50

[
  {
    "compound": "C=C1CC(COc2cc(=O)oc3ccccc23)(c2ccccc2)OC1=O (centres undefined)",
    "system.under.test": "SF-268",
    "measurement.label": "GI50",
    "result": "7.33 µM (inactive)"
  },
  {
    "compound": "CCOc1ccccc1NC(=O)C1=C(C)NC(C)=C(C(=O)Nc2ccccc2OCC)C1c1ccc([N+](=O)[O-])cc1",
    "system.under.test": "SF-268",
    "measurement.label": "GI50",
    "result": "> 100 µM (inactive)"
  },
  {
    "compound": "COC(=O)C(C(=O)C(=O)Nc1nc2ccc(OC)cc2s1)c1cnc2ccccc2n1 (centres undefined)",
    "system.under.test": "SF-268",
    "measurement.label": "GI50",
    "result": "> 100 µM (inactive)"
  },
  {
    "compound": "O=C(/C=C/c1ccc(O)c(O)c1)OCC(OC(=O)/C=C/c1ccc(O)c(O)c1)C(=O)O (centres undefined)",
    "system.under.test": "SF-268",
    "measurement.label": "GI50",
    "result": "> 100 µM (inactive)"
  },
  {
    "compound": "N#Cc1cc(-c2nc3c(F)cccc3s2)ccc1N",
    "system.under.test": "SF-268",
    "measurement.label": "GI50",
    "result": "> 100 µM (inactive)"
  },
  {
    "compound": "O=C1Oc2ccccc2C(=O)/C1=C/N1C(=O)/C(=C/c2ccc([N+](=O)[O-])cc2)SC1=S",
    "system.under.test": "SF-268",
    "measurement.label": "GI50",
    "result": "23.2 µM (inactive)"
  },
  {
    "compound": "CC(C)(C)c1cc(-c2cc(C(C)(C)C)[nH]n2)[nH]n1",
    "system.under.test": "SF-268",
    "measurement.label": "GI50",
    "result": "> 100 µM (inactive)"
  },
  {
    "compound": "Cn1nc(-c2ccccc2)c(C(=O)/C=C/c2ccccc2)c(N2CCOCC2)c1=O",
    "system.under.test": "SF-268",
    "measurement.label": "GI50",
    "result": "16.9 µM (inactive)"
  },
  {
    "compound": "C[C@]12CC/C(=N\\OCCN3CCCC3)C=C1CCC1C2CC[C@@]2(C)C1CC[C@]2(C)O (some centres undefined)",
    "system.under.test": "SF-268",
    "measurement.label": "GI50",
    "result": "13.3 µM (inactive)"
  }
]

---

# GI50 per record follows
system: LOX IMVI; experiment: NCI tumour cell line growth inhibition, 48 h
Active and inactive are the calls of the source. Cut-off read from the data, not from the text of the source: active = GI50 up to about 1.1 µM and inactive = higher.
measurement.label: GI50

[
  {
    "molecule": "COC(=O)c1sc(=S)sc1SCc1cccc(CSc2sc(=S)sc2C(=O)OC)c1",
    "result": "> 100 µM (inactive)"
  },
  {
    "molecule": "CN(CCNC(=O)c1nn(-c2ccccc2)c2c1Cc1ccccc1-2)CCNC(=O)c1nn(-c2ccccc2)c2c1Cc1ccccc1-2",
    "result": "1.74 µM (inactive)"
  },
  {
    "molecule": "NC(=O)c1cc(C2OC(CO)C(O)C2O)nn1-c1ccc([N+](=O)[O-])cc1 (stereo not given)",
    "result": "> 100 µM (inactive)"
  },
  {
    "molecule": "CCN1C(=O)C/C(=C\\C(C)=O)Nc2ccccc21",
    "result": "> 100 µM (inactive)"
  },
  {
    "molecule": "O=C(O)[C@H](CCC[C@H]1C(=O)O[C@H](c2ccccc2)[C@H](c2ccccc2)N1C(=O)OCc1ccccc1)N[C@@H](c1ccccc1)[C@H](O)c1ccccc1",
    "result": "22.9 µM (inactive)"
  }
]

---

tested on: EKVX; assay: NCI tumour cell line growth inhibition, 48 h
Calls of active or inactive are those of the source. Rule as the data show it: active = GI50 up to about 1.1 µM and inactive = higher.
Labels: 1 (active), -1 (inactive)

[
  {
    "compound": "O=C(O)CC1OCC=C2C[N+]3([O-])CCC45c6ccccc6NC4C1C2CC53 (centres undefined)",
    "system.under.test": "EKVX",
    "class.name": -1
  },
  {
    "compound": "COC(=O)CNC(=O)C(CSC(=O)OCC1c2ccccc2-c2ccccc21)NC(=O)CCC(NC(=O)OCC1c2ccccc2-c2ccccc21)C(=O)OC (centres undefined)",
    "system.under.test": "EKVX",
    "class.name": -1
  },
  {
    "compound": "N#CSC/C(Cl)=C/Cl.N#CSC/C(Cl)=C\\Cl",
    "system.under.test": "EKVX",
    "class.name": -1
  },
  {
    "compound": "CCN(CC)CCCNc1nncc2c(C)c3[nH]c4ccc(OC)cc4c3cc12",
    "system.under.test": "EKVX",
    "class.name": -1
  },
  {
    "compound": "COc1ccc([N+](=O)[O-])c2c(NCCCN(C)C)c3ccccc3nc12",
    "system.under.test": "EKVX",
    "class.name": 1
  },
  {
    "compound": "CN(C)c1ccc(/C=N\\NC(=O)CSCC(=O)N/N=C/c2ccc(N(C)C)cc2)cc1",
    "system.under.test": "EKVX",
    "class.name": -1
  },
  {
    "compound": "COc1ccc(/C=C2\\CCC(C)C3C2=NN(c2ccccc2)C3c2ccc(OC)c(OC)c2)cc1OC (centres undefined)",
    "system.under.test": "EKVX",
    "class.name": -1
  },
  {
    "compound": "O=C1CCc2c3c(c4c([nH]c5ccccc54)c2CC1)C(=O)NC3=O",
    "system.under.test": "EKVX",
    "class.name": -1
  },
  {
    "compound": "CC1=C(C#N)C23C(=O)c4ccccc4C(=O)C2=C(O)C=CC3(O)N1 (centres undefined)",
    "system.under.test": "EKVX",
    "class.name": -1
  }
]
